Assay System: hA2A receptor (Homo sapiens (Human), UniProt P29274)
Sequence (P29274 whole entry): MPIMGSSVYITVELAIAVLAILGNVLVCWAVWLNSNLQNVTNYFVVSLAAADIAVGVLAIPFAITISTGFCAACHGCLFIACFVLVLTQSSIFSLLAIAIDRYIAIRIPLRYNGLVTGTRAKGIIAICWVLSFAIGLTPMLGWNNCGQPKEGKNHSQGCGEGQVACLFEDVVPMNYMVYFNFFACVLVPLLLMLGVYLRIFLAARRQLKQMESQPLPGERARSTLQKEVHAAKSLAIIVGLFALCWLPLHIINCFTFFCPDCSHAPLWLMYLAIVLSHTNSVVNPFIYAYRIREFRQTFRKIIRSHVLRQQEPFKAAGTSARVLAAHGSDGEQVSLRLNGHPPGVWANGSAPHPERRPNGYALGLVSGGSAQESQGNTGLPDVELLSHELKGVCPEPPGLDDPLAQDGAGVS
Counter-ions that a name gives are not always drawn.
Readout Type: log10 of Ki (log10 of the value in µM)
Plainly stated, the numbers are log10 of Ki given in µM.

Below: 4 molecules and their reported log10 of Ki.
molecule=Nc1cc(C(=O)N2CCCCCC2)ccc1C(=O)c1cnc2ccc(F)cn12 observed_measurement=-0.99
molecule="N#Cc1ccc2ncc(-c3noc4cc(C(=O)N5CCOCC5)ccc34)n2c1 [Example 125, HCl salt]" observed_measurement=-0.83
molecule=CCN(C(=O)c1ccc(C(=O)c2cnc3ccccn23)nc1)C1CCCCC1 observed_measurement=-0.58
molecule="CN1CCN(C(=O)n2nc(-c3cnc4ccc(F)cn34)c3ccc(C(=O)N4CCCCCC4)cc32)CC1.Cl [Example 111, HCl salt]" observed_measurement=-0.54

What is its log10 of Ki for hA2A receptor (Homo sapiens (Human), UniProt P29274)? Entry: "COC[C@H]1CCCN1C(=O)c1ccc2c(-c3cnc4ccc(C#N)cn34)nn(C)c2c1"
-2.52

Form entry - test system: hA2A receptor (Homo sapiens (Human), UniProt P29274); read-out: log10 of Ki; molecule: "O=C(c1ccc(C(=O)N(C2CCCCC2)C2CCCCC2)cc1)c1cnc2ccccn12"
-0.86

Give log10 of Ki (hA2A receptor (Homo sapiens (Human), UniProt P29274)) of the following molecule: "Cn1nc(-c2cnc3ccc(F)cn23)c2ccc(C(=O)N3CCCCCCC3)cc21"
-2.52

What is its log10 of Ki for hA2A receptor (Homo sapiens (Human), UniProt P29274)? Entry: "CCN(C(=O)c1ccc(C(=O)c2cnc3ccc(Br)cn23)cc1)C1CCCCC1"
-0.97

Values from patent US9029393B2
